Molecular target: D(4) dopamine receptor (Homo sapiens)
Sequence (P21917 whole entry): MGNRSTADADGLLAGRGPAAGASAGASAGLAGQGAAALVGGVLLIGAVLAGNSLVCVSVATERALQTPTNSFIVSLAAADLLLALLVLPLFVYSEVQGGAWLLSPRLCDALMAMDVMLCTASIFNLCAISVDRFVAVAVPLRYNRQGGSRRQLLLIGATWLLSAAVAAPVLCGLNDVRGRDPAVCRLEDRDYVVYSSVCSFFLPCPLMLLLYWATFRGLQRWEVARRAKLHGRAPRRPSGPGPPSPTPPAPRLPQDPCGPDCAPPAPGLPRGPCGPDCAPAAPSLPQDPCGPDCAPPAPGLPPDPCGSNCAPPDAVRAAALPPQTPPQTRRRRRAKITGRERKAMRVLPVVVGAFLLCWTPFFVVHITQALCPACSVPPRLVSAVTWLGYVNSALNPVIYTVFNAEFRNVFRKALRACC
Format: cell-based, CHO
Description: High inhibition constant against [3H]spiperone binding to human Dopamine receptor D4.4 expressed in CHO cells
pKi: −log10 of the molar value.
measurementLabel: pKi

{"molecularString": "CCCN(CCC)[C@H]1CCn2c(C#N)ccc2C1", "assayedSystem": "D(4) dopamine receptor (Homo sapiens)", "measured": 7.40}
{"molecularString": "CCCN(CCC)[C@H]1CCn2c(C=O)ccc2C1", "assayedSystem": "D(4) dopamine receptor (Homo sapiens)", "measured": 7.49}

###

EC50, D(3) dopamine receptor (Homo sapiens): measured values
measurementLabel: EC50 (nM)

a. CCCN(CCC)[C@H]1CCn2c(C=O)ccc2C1
b. CCCN(CCC)[C@H]1CCn2c(C#N)ccc2C1
I need your help: which of the pair a , b has higher EC50? State your choice using its label. b
(b: 2.4 nM, a: 1.1 nM)

###

molecular target: D(3) dopamine receptor (Homo sapiens, UniProt P35462); type: cell-based, CHO
Sequence (P35462 whole entry): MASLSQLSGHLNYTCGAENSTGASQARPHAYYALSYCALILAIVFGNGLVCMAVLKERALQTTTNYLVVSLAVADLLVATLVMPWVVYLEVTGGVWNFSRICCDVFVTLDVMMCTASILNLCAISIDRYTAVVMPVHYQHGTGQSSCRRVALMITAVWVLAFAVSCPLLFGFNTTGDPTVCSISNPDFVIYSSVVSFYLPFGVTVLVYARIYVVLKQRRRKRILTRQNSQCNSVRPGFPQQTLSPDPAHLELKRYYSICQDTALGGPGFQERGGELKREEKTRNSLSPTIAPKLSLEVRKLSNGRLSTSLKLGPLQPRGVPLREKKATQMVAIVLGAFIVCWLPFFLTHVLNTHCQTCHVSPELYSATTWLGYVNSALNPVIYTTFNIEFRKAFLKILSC
Description: Inhibition constant against [3H]-spiperone binding to human Dopamine receptor D3 expressed in CHO cells
measurementLabel: Ki (nM)

Solved cases (5 shown):
{"molecularString": "CCCN(CCC)[C@H]1CCn2c(ccc2CN(C)C)C1", "measurementLabel": "Ki", "u": "nM", "measured": 3630}
{"molecularString": "CCCN(CCC)[C@@H]1CCn2c(CO)ccc2C1", "measurementLabel": "Ki", "u": "nM", "measured": 724}
{"molecularString": "CCCN(CCC)[C@@H]1CCn2cc(C)cc2C1", "measurementLabel": "Ki", "u": "nM", "measured": 912}
{"molecularString": "CCCN(CCC)[C@@H]1CCc2c(ccn2C=O)C1", "measurementLabel": "Ki", "u": "nM", "measured": 43.7}
{"molecularString": "CCCN(CCC)[C@H]1CCn2c(C=C(C#N)C#N)ccc2C1", "measurementLabel": "Ki", "u": "nM", "measured": 60.3}

I. CCCN(CCC)[C@@H]1CCn2c(C=C(C#N)C#N)ccc2C1
II. CCCN(CCC)[C@H]1CCn2c(C#N)ccc2C1
Hi there! Just curious which has the higher Ki between I and II . Response format: the label of the selected entry. I
(I: 6030 nM, II: 7.24 nM)

a. CCCN(CCC)[C@@H]1CCn2c(/C=N\O)ccc2C1
b. CCCN(CCC)[C@H]1CCn2cc(C)cc2C1
c. CCCN(CCC)[C@@H]1CCn2ccc(CO)c2C1
d. CCCN(CCC)[C@@H]1CCn2c(C#N)ccc2C1
Could you please order the items by Ki, going from the lowest number to the highest? // format: requested-order list of labels c, b, d, a

1. CCCN(CCC)[C@@H]1CCn2cccc2C1
2. CCCN(CCC)[C@H]1CCn2c(ccc2C(=O)OCC)C1
3. CCCN(CCC)[C@H]1CCn2c(ccc2C(=O)C(Cl)(Cl)Cl)C1
4. CCCN(CCC)[C@@H]1CCn2c(ccc2-c2ccccc2)C1
Arrange by Ki, high to low. List the labels in the requested order. 2, 4, 1, 3

a. CCCN(CCC)[C@@H]1CCn2ccc(C)c2C1
b. CCCN(CCC)[C@@H]1CCn2c(ccc2C(=O)C(Cl)(Cl)Cl)C1
c. CCCN(CCC)[C@H]1CCc2c(ccn2C=O)C1
d. CCCN(CCC)[C@@H]1CCn2c(/C=N/O)ccc2C1
e. CCCN(CCC)[C@H]1CCn2c(C=O)ccc2C1
List by increasing Ki. Submit the labels in the order that the ranking request calls for. e, c, b, a, d

a. CCCN(CCC)[C@@H]1CCn2c(ccc2C(=O)c2ccccc2)C1
b. CCCN(CCC)[C@@H]1CCn2c(ccc2C(=O)OCC)C1
c. CCCN(CCC)[C@H]1CCn2cccc2C1
Hello, I need these entries ordered by Ki, highest reading first. Thanks! Sort the labels as requested; that list is your answer. a, c, b
